# tested_target: Carbonic anhydrase 12 (Homo sapiens)
# Sequence (O43570 whole entry): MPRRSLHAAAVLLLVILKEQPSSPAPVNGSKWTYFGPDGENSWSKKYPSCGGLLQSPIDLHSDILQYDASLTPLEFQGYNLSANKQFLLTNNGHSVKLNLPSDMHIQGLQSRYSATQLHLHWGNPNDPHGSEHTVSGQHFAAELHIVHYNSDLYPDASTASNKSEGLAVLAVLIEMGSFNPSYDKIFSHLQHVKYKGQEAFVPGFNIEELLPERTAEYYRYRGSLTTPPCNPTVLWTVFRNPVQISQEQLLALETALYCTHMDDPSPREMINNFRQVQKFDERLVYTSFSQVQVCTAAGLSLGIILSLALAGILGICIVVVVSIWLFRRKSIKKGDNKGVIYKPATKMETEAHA
# assay_explanation: Inhibition of human recombinant transmembrane carbonic anhydrase 12 after 6 hrs by stopped flow CO2 hydration method
pKi: −log10 of the molar value.
measured_endpoint: pKi

> print(dat)
                                smiles.text  recorded.number
1  O=S1(=O)C=Cc2cc(-c3nnnn3-c3ccc(F)c(Cl)c3)ccc2O1             8.27
